Please provide measured Lipophilic Efficiency (logP) for the entries that follow.
# Tested on: parental HEK cells
# Measurement protocol: HEK parental Agonist Counterscreen Assay (non-transfected cells)
# Assay type: cell-based
# Condition description: HEK Agonist Activity
Hey, just send me the number, nothing else.

Query: Under parental HEK cells: Lipophilic Efficiency (logP) value of Cc1cccc(C(=O)NNC(=O)C(C)Oc2ccc(O)cc2O)c1 (centres unmarked) [SR-01000410744] ?
Result: 0.95

Query: Now consider CCC1CCCCN1C(=O)CN1C(=O)NC(C)(c2ccc3ccccc3c2)C1=O (centres unmarked) [SR-01000048417] and answer again.
Result: 1.80

Query: Now consider O=C(COc1ccccc1Cl)NNC(=O)CSc1ccc2ccccc2c1 [SR-01000071098] and answer again.
Result: 1.37

Query: Now consider Cc1cc(Cl)ccc1OC(C)C(=O)NNC(=O)c1ccccc1 (centres unmarked) [SR-01000013313] and answer again.
Result: 1.40

Query: Now consider O=C(CN1CCN(Cc2ccccc2Cl)C1=O)NCc1ccccc1Cl [SR-01000125458] and answer again.
Result: 1.94

Query: Now consider Cc1cccc(Cc2cnc(NC(=O)CC(C)C)s2)c1 [SR-01000071221] and answer again.
Result: 0.08

Query: Now consider Cc1ccc(CCNC(=O)Cn2cc3c(n2)CCCC3)cc1 [SR-01000137723] and answer again.
Result: 1.70

Query: Now consider C=C(CCc1cccc(CC)c1)C(C)C1CCC(Cc2ccccc2C)C1=C (centres unmarked) [SR-01000095280] and answer again.
Result: 2.38

Query: Now consider CC1(c2ccc3ccccc3c2)NC(=O)N(CC(=O)Nc2ccccc2Cl)C1=O (centres unmarked) [SR-01000066950] and answer again.
Result: 1.21

Query: Now consider COc1ccc(OC)c(NC(=O)NNC(=O)C(C)Oc2ccc(Cl)cc2Cl)c1 (centres unmarked) [SR-01000276878] and answer again.
Result: 1.58

Query: Now consider O=C(Cn1ccc2ccccc21)NCCn1cnc(-c2ccccc2)cc1=O [SR-01000926956] and answer again.
Result: 2.87

Query: Now consider COc1cc(-c2nnc(COc3ccc(Cl)cc3C)o2)cc(OC)c1OC [SR-01000504687] and answer again.
Result: 1.65

Query: Now consider CCC1Cc2ccc(C)cc2CC1C(=O)Nc1ccc(-c2cn[nH]c2)cc1OCCN(C)C (centres unmarked) [SR-00000007138] and answer again.
Result: 1.76

Query: Now consider CC(NC(=O)CN1C(=O)c2cccc([N+](=O)[O-])c2C1=O)c1ccc(Cl)cc1Cl (centres unmarked) [SR-01000074712] and answer again.
Result: 1.73

Query: Now consider O=C(COc1ccccc1F)NNC(=O)CSc1ccc2ccccc2c1 [SR-01000068761] and answer again.
Result: 1.81

Query: Now consider Cc1cc(Cl)ccc1OCC(=O)NNC(=O)C1CC1c1ccccc1 (centres unmarked) [SR-01000317486] and answer again.
Result: 1.64

Query: Now consider CC(Oc1ccc(O)cc1Cl)C(=O)NNC(=O)c1cccc(F)c1 (centres unmarked) [SR-01000520454] and answer again.
Result: 1.19

Query: Now consider Cc1c2cnn(CC(=O)NC(C)c3ccccc3)c(=O)c2c(C)n1Cc1ccc(F)cc1 (centres unmarked) [SR-01000138428] and answer again.
Result: 1.03

Query: Now consider Cc1cc(C(=O)CCC(=O)NNC(=O)c2ccc(COc3ccccc3)cc2)c(C)o1 [SR-01000069259] and answer again.
Result: 0.40

Query: Now consider O=C(NCC1Cc2cccc(-c3ccccn3)c2O1)c1ccc(-n2cccn2)cc1 (centres unmarked) [SR-01000183606] and answer again.
Result: 1.16

Query: Now consider COc1ccc(NC(=O)NCCOc2cccc3ccccc23)cc1OC [SR-01000223498] and answer again.
Result: 1.43

Query: Now consider COc1ccc(CCNC(=O)Nc2ccc3c(c2)CCCN3C(=O)C2CC2)cc1 [SR-01000923125] and answer again.
Result: 1.53

Query: Now consider O=C(Cn1ccc([N+](=O)[O-])n1)NCCc1ccc(Cl)cc1 [SR-01000299915] and answer again.
Result: 2.40

Query: Now consider COc1ccc(CCNC(=O)c2cnc(N3CCCC3CO)s2)cc1 (centres unmarked) [SR-01000652673] and answer again.
Result: 2.61

Query: Now consider COc1cc(C(C)=O)ccc1OCC(=O)NC(C)CCc1ccccc1 (centres unmarked) [SR-01000048295] and answer again.
Result: 1.86

Query: Now consider Cc1cc(C(=O)NNC(=O)CNC(=O)Cc2cccc3ccccc23)c(C)o1 [SR-01000068718] and answer again.
Result: 3.34

Query: Now consider O=C(CSc1ccc2ccccc2c1)NNC(=O)c1ccc(Br)s1 [SR-01000069345] and answer again.
Result: 0.77

Query: Now consider Cc1cc(C(=O)CCC(=O)NNC(=O)CSc2nc3ccccc3s2)c(C)s1 [SR-01000070591] and answer again.
Result: 1.00

Query: Now consider O=C(Cn1nc(Cc2ccncc2)c2ccccc2c1=O)NC(O)CCc1ccccc1 (centres unmarked) [SR-01000134029] and answer again.
Result: 1.41

Query: Now consider C=C(C)CN(CC)C(=O)CN1C(=O)NC(C)(c2ccc3ccccc3c2)C1=O (centres unmarked) [SR-01000048841] and answer again.
Result: 2.25

Query: Now consider CN(Cc1cccs1)C(=O)CN1C(=O)NC(C)(c2ccc3c(c2)OCO3)C1=O (centres unmarked) [SR-01000068229] and answer again.
Result: 3.29

Query: Now consider Cc1cccc(CCNC(=O)c2c[nH]c3cc(-c4cn[nH]c4)ccc23)c1 [SR-00000007279] and answer again.
Result: 2.29

Query: Now consider COc1ccccc1C(=O)NNC(=O)C(C)Oc1ccc(Cl)cc1Cl (centres unmarked) [SR-01000356020] and answer again.
Result: 1.48

Query: Now consider O=C(CN1CCCN(Cc2ccc(F)cc2Cl)C1=O)NC1CCCCCC1 [SR-01000146442] and answer again.
Result: 1.82

Query: Now consider CC(C)C(CC(=O)Cc1cccc2ccccc12)C(=O)Nc1cccc(C#N)c1 (centres unmarked) [SR-05000022531] and answer again.
Result: 0.61

Hey, just so you know, these numbers are from patent US20250099420A1.
